# Test system: UACC-62
# Experiment Notes: Growth inhibition of human UACC62 cells assessed as cell growth at 10 uM incubated for 48 hrs by sulforhodamine B assay relative to control
# Assay type: functional
# Test Settings: UACC-62, 48 h, read-out: Activity
Assay Endpoint: growth at 10 µM (%)
Answer in %, number only, no unit symbol.

>>> result("O=C(Nc1cccc(-n2cc(-c3ccncc3)c(-c3cc(O)cc(Cl)c3)n2)c1)c1ccc(N2CCOCC2)c(C(F)(F)F)c1")
10.8
>>> result("COc1cc(Cl)cc(-c2nn(-c3cccc(NC(=O)c4cccc(C(F)(F)F)c4)c3)cc2-c2ccncc2)c1")
74.5
>>> result("COc1cc(Cl)cc(-c2nn(-c3cccc(NC(=O)c4ccc(N5CCOCC5)c(C(F)(F)F)c4)c3)cc2-c2ccncc2)c1")
67.8

Now for the molecule whose growth at 10 µM we want.
State growth at 10 µM (UACC-62) of COc1cc(Cl)cc(-c2nn(-c3cccc(NC(=O)c4cc(C(F)(F)F)cc(C(F)(F)F)c4)c3)cc2-c2ccncc2)c1 .
81.4
